Please provide measured viability for the entries that follow.
# ASSAY: reversal of MRP1-mediated doxorubicin resistance, pilot screen, H69AR cells, doxorubicin co-treatment (AID 601)
# RECORDED CONDITIONS: H69AR cells, CellTiter-Glo, 72 h; compound alone cytotoxicity; at 10 µM
Give bare numbers, in %.

Look over these answered cases.
| COMPOUND | viability (%) |
| --- | --- |
| COc1cccc(N2CCN(CC(=O)c3c[nH]c4ccc(OC)cc34)CC2C)c1 (stereo not given) | 70.4 |
| O=C(CC(Cc1ccccc1)C(=O)O)NCCc1ccc2c(c1)OCO2 (stereo not given) | 100 |
| Cc1cnc(NC(=O)C2=C(O)c3ccccc3S(=O)(=O)N2C)s1 | 89.9 |
| CCOc1ccc(NC(=O)c2ccncc2)cc1 | 99.9 |
| C[C@@H]1C[C@H]2[C@@H]3C[C@H](F)C4=CC(=O)C=C[C@]4(C)[C@@]3(F)[C@@H](O)C[C@]2(C)[C@@]1(O)C(=O)COC(=O)C(C)(C)C | 79.5 |
| CCCN(CCC)c1nc2ccccc2n2c(C)nnc12 | 81.1 |
| O=C(NC(NC1CCS(=O)(=O)C1)C(=O)c1cccs1)c1ccccc1 (stereo not given) | 106 |
| Cn1c(=O)[nH]c(=O)c2c1nc(CN1CCN(c3cccc(Cl)c3)CC1)n2CCc1ccccc1 | 23.5 |
| Cc1cc(C)cc(N2C(=O)C3C4C=CC(C4)C3C2=O)c1 (stereo not given) | 93 |

From here, focus on the item given below.
IN: Dear colleague, I am looking for the recorded viability of the following compound: CC(C)c1nc(NCC2CCCO2)c(C#N)c2c1COC(C)(C)C2 (stereo not given)
OUT: 89.1
